- ASSAY INFO: Caco-2 cell transport assay (bidirectional)
- EXPERIMENTAL CONDITIONS: human, Caco-2, pH 7.4, Mean Papp A to B, Table 3-2; Caco-2, 2.00 μM, 2 hrs, pH 7.40
PROPERTY NAME: Papp A→B at 2 h, 2 μM (×10⁻⁶ cm/s)

# CHEMICAL STRING, UNIT TAG, ASSAY VALUE
rows = [
    ("C[C@H]1O[C@@H](O[C@H]2[C@@H](O)C[C@H](O[C@H]3[C@@H](O)C[C@H](O[C@H]4CC[C@@]5(C)[C@H](CC[C@@H]6[C@@H]5C[C@@H](O)[C@]5(C)[C@@H](C7=CC(=O)OC7)CC[C@]65O)C4)O[C@@H]3C)O[C@@H]2C)C[C@H](O)[C@@H]1O", "×10⁻⁶ cm/s", 0.0476),
]

----------
- ASSAY INFO: in vitro
- EXPERIMENTAL CONDITIONS: human, Caco-2, pH 7.4, Mean Papp B to A
PROPERTY NAME: Papp B→A at 2 h, 2 μM

# COMPOUND, PROPERTY NAME, ASSAY VALUE
measured = [
    ("CC(C)(N)C(=O)N[C@H](COCc1ccccc1)C(=O)N1CCC2(CC1)CN(S(C)(=O)=O)c1ccccc12 [Ibutamoren, reference compound]", "Papp B→A at 2 h, 2 μM", "19.5 ×10⁻⁶ cm/s"),
    ("CC(=O)/C=C(/C)NC(C)(C)C(=O)N[C@H](COCc1ccccc1)C(=O)N1CCC2(CC1)CN(S(C)(=O)=O)c1ccccc12", "Papp B→A at 2 h, 2 μM", "37.3 ×10⁻⁶ cm/s"),
]

----------
- TARGET OR TEST SYSTEM: human GHSR (Homo sapiens (Human), UniProt Q92847)
- Sequence (Q92847 whole entry): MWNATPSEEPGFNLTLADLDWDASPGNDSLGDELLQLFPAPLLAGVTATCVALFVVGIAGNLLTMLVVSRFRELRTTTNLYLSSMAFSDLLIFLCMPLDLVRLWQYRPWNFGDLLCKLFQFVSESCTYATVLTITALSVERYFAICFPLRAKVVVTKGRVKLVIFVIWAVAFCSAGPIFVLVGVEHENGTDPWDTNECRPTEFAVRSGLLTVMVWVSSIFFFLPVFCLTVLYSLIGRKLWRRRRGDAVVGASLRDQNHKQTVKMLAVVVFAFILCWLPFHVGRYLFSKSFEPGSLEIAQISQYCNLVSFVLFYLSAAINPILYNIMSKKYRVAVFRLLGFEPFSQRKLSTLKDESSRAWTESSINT
- ASSAY INFO: Human GHSR agonist activity, FLIPR calcium fluorescence in human GHSR/CHO stable cell line
- Format: cell-based
- EXPERIMENTAL CONDITIONS: human GHSR/CHO stable cell line, Fluo-4 FLIPR
pEC50: −log10 of the molar value.

# COMPOUND, pEC50
measured = [
    ("CC(OC(=O)NC(C)(C)C(=O)N[C@H](COCc1ccccc1)C(=O)N1CCC2(CC1)CN(S(C)(=O)=O)c1ccccc12)OC(=O)C(C)C (stereo partly shown) [Compound 5]", 7.84),
]

----------
- ASSAY INFO: Caco-2 cell transport assay (bidirectional)
- EXPERIMENTAL CONDITIONS: human, Caco-2, pH 7.4, Mean Papp B to A, Table 3-1; Caco-2, 2.00 μM, 2 hrs, pH 7.40
PROPERTY NAME: Papp B→A at 2 h, 2 μM (×10⁻⁶ cm/s)

# CHEMICAL STRING, UNIT TAG, ASSAY VALUE
measured = [
    ("C[C@H]1O[C@@H](O[C@H]2[C@@H](O)C[C@H](O[C@H]3[C@@H](O)C[C@H](O[C@H]4CC[C@@]5(C)[C@H](CC[C@@H]6[C@@H]5C[C@@H](O)[C@]5(C)[C@@H](C7=CC(=O)OC7)CC[C@]65O)C4)O[C@@H]3C)O[C@@H]2C)C[C@H](O)[C@@H]1O", "×10⁻⁶ cm/s", 12),
]

----------
- ASSAY INFO: Metabolism (pharmacokinetic) test in rats, oral gavage
- EXPERIMENTAL CONDITIONS: rat, whole blood, po, 3 mg/kg

# MOLECULE, half-life
measured = [
    ("CC(C)(N)C(=O)N[C@H](COCc1ccccc1)C(=O)N1CCC2(CC1)CN(S(C)(=O)=O)c1ccccc12 [Ibutamoren, reference compound]", "9.61 h"),
]

----------
- ASSAY INFO: Metabolism (pharmacokinetic) test in rats, oral gavage
- EXPERIMENTAL CONDITIONS: rat, whole blood, po, 3 mg/kg
PROPERTY NAME: AUC(0-inf) (ng·h/mL)

# COMPOUND, PROPERTY NAME, UNIT TAG, ASSAY VALUE
records = [
    ("CC(C)(N)C(=O)N[C@H](COCc1ccccc1)C(=O)N1CCC2(CC1)CN(S(C)(=O)=O)c1ccccc12 [Ibutamoren, reference compound]", "AUC(0-inf)", "ng·h/mL", 14.3),
]

----------
- ASSAY INFO: Caco-2 cell transport assay (bidirectional)
- EXPERIMENTAL CONDITIONS: human, Caco-2, pH 7.4, Efflux Ratio, Table 3-1; Caco-2, 2.00 μM

# CHEMICAL STRING, efflux ratio at 2 h, 2 μM
measured = [
    ("C[C@H]1O[C@@H](O[C@H]2[C@@H](O)C[C@H](O[C@H]3[C@@H](O)C[C@H](O[C@H]4CC[C@@]5(C)[C@H](CC[C@@H]6[C@@H]5C[C@@H](O)[C@]5(C)[C@@H](C7=CC(=O)OC7)CC[C@]65O)C4)O[C@@H]3C)O[C@@H]2C)C[C@H](O)[C@@H]1O", 523),
]
